test system: DMS-53 (Small Cell Lung Carcinoma); experiment: Bliss excess, mean over the matrix (fraction); higher = more synergy;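 also: after 72 h of two-drug dosing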
RECORDED METRIC: Bliss excess

For orientation, consider the following solved cases.
molecule="COc1cccc(OCCCN)c1-c1cc(Nc2cnc(C#N)cn2)n[nH]1 [Prexasertib] + CCc1c2c(nc3ccc(O)cc13)-c1cc3c(c(=O)n1C2)COC(=O)[C@]3(O)CC [SN-38] (first compound max 1 µM, 7x7, partner max 0.3 µM)" recorded_metric="Bliss excess" measured_value=-0.0377
molecule="COc1cccc(OCCCN)c1-c1cc(Nc2cnc(C#N)cn2)n[nH]1 [Prexasertib] + O=C(c1cc(Cc2n[nH]c(=O)c3ccccc23)ccc1F)N1CCN(C(=O)C2CC2)CC1 [Olaparib] (first compound max 1 µM, 7x7, partner max 10 µM)" recorded_metric="Bliss excess" measured_value=-0.0473
molecule="COc1nnc2ccc(N3CCC(c4ccc(OCCN5CCN(C)C(=O)[C@H]5C)cc4)CC3)nn12 [AZD5153] + C[C@@H]1COCCN1C2=NC(=NC(=C2)C3(CC3)[S@](=N)(=O)C)C4=C5C=CNC5=NC=C4 [AZD6738] (first compound max 1 µM, 7x7, partner max 10 µM)" recorded_metric="Bliss excess" measured_value=0.037

Please find the next molecule below.
Bliss excess in this record for CCN(CCO)CCCOc1ccc2c(Nc3cc(CC(=O)Nc4cccc(F)c4)[nH]n3)ncnc2c1 [AZD2811] + C=CCn1c(=O)c2cnc(Nc3ccc(N4CCN(C)CC4)cc3)nc2n1-c1cccc(C(C)(C)O)n1 [AZD1775] (first compound max 1 µM, partner max 1 µM) : -0.0378
